# Tested on: Plasmodium berghei
# method-notes: Luciferase/luciferin-expressing antifolate-resistant parasites were used to infect a culture of HepG2 cells that were pre-incubated with compounds. Infected hepatocytes emit light due to the luciferase reaction. Assay results are presented as the percent inhibition of light emission compared to control. […]
# Assay type: functional
# run-parameters: sporozoite, read-out: LUCIFERASE INFECTION ASSAY - IC90
endpoint-label: IC90

Check out these entries, answers already filled in.
1) Fc1ccc(-c2cnc3cnc(-c4cccs4)cn23)cc1Cl : > 10 µM
2) Cc1noc(-c2ccc(Cl)cc2)c1C(=O)ONC(=N)c1ccc(C(F)(F)F)cc1 : > 7.79 µM
3) CC12CCC(C(=O)N3CCN(c4cccc(Cl)c4)CC3)(OC1=O)C2(C)C (stereo not given) : > 8.76 µM

-- ask Can you look up the measured IC90 of Cc1cc(/C=C2\SC(N3CCOCC3)=NC2=O)c(C)n1-c1cccc(C(F)(F)F)c1 for me?
-- reply > 10 µM

-- ask Can you look up the measured IC90 of CCc1cccc2c(C3=CCN(c4ncnc5c4cnn5C)CC3)c[nH]c12 for me?
-- reply > 10 µM

-- ask Can you look up the measured IC90 of COc1cc(-c2[nH]nc3nccc(/C=C/c4ccccc4)c23)cc(OC)c1OC for me?
-- reply 0.962 µM

-- ask Can you look up the measured IC90 of COc1ccc(-n2c(C)cc(/C=C(\C#N)C(=O)OCC(=O)Nc3ccc(Cl)c(C(F)(F)F)c3)c2C)cc1 for me?
-- reply > 10 µM

-- ask Can you look up the measured IC90 of Cc1ccc(C(C#N)c2ccc(NN)nn2)cc1 (stereo not given) for me?
-- reply > 13.8 µM

-- ask Can you look up the measured IC90 of COc1ccc(Nc2nnc(SCc3cn4c(C)cccc4n3)s2)cc1 for me?
-- reply 3.76 µM

-- ask Can you look up the measured IC90 of Cc1c(-c2ccccc2)oc2c(C(=O)N(Cc3ccccc3Cl)S(=O)(=O)c3cccc(C(F)(F)F)c3)cccc2c1=O for me?
-- reply > 10 µM

----------
# Test system: Plasmodium berghei
# method-notes: Luciferase/luciferin-expressing antifolate-resistant parasites were used to infect a culture of HepG2 cells that were pre-incubated with compounds. Infected hepatocytes emit light due to the luciferase reaction. Assay results are presented as the percent inhibition of light emission compared to control. […]
# Type: functional
# run-parameters: sporozoite, FFLUC_HILL_SLOPE 13.4, FFLUC_R_SQUARED 0.159, PBLUC_HILL_SLOPE 11.7, PBLUC_R_SQUARED 0.342, read-out: LUCIFERASE INFECTION ASSAY - IC50
endpoint-label: IC50

-- ask Any idea what IC50 came out for Cn1c(-c2cccc(C(F)(F)F)c2)cc2c(Nc3cccnc3)nccc21 on Plasmodium berghei?
-- reply 9.06 µM

----------
# Test system: Plasmodium berghei
# method-notes: Luciferase/luciferin-expressing antifolate-resistant parasites were used to infect a culture of HepG2 cells that were pre-incubated with compounds. Infected hepatocytes emit light due to the luciferase reaction. Assay results are presented as the percent inhibition of light emission compared to control. […]
# Assay type: functional
# run-parameters: sporozoite, HEPG2TOX_HILL_SLOPE 17.3, HEPG2TOX_R_SQUARED 0.807, PBLUC_HILL_SLOPE 2.78, PBLUC_R_SQUARED 0.42, read-out: LUCIFERASE INFECTION ASSAY - IC50
endpoint-label: IC50 (µM)
Supply the numeric figure in µM, leaving out any unit text.

-- ask Any idea what IC50 came out for CCN(CC)c1ccc(Nc2nc(-c3ccncc3)cs2)cc1 on Plasmodium berghei?
-- reply 4.75
